System: HepG2
Experiment: Inhibition of ferroptosis in human HepG2 cells assessed as increase in pAMPK/AMPK ratio at 1 uM incubated for 24 hrs by Western blot analysis
Type: functional, cell-based
Calls of active or inactive are those of the source. No cut-off for these calls is given here.
Choose the fitting class; nothing outside 1.0 for active, 0.0 for inactive is accepted.

Answer briefly: the call reported for CCCCCCCCCCc1cc2nc3ccc(N(C)C)cc3sc-2cc1=[N+](C)C.[I-] in this assay.
1.0

Answer briefly: the call reported for CN(C)c1ccc2nc3ccc(=[N+](C)C)cc-3sc2c1 in this assay.
0.0

Answer briefly: the call reported for CCCCCCCCCCc1cc2nc3ccc(N(C)C)cc3sc-2cc1=O in this assay.
1.0

Answer briefly: the call reported for CN(C)c1ccc2nc3ccc(=O)cc-3sc2c1 in this assay.
1.0
